Molecular target: Voltage-dependent L-type calcium channel subunit alpha-1C (Rattus norvegicus, UniProt P22002); also: assay procedure not described here
Sequence (P22002 whole entry): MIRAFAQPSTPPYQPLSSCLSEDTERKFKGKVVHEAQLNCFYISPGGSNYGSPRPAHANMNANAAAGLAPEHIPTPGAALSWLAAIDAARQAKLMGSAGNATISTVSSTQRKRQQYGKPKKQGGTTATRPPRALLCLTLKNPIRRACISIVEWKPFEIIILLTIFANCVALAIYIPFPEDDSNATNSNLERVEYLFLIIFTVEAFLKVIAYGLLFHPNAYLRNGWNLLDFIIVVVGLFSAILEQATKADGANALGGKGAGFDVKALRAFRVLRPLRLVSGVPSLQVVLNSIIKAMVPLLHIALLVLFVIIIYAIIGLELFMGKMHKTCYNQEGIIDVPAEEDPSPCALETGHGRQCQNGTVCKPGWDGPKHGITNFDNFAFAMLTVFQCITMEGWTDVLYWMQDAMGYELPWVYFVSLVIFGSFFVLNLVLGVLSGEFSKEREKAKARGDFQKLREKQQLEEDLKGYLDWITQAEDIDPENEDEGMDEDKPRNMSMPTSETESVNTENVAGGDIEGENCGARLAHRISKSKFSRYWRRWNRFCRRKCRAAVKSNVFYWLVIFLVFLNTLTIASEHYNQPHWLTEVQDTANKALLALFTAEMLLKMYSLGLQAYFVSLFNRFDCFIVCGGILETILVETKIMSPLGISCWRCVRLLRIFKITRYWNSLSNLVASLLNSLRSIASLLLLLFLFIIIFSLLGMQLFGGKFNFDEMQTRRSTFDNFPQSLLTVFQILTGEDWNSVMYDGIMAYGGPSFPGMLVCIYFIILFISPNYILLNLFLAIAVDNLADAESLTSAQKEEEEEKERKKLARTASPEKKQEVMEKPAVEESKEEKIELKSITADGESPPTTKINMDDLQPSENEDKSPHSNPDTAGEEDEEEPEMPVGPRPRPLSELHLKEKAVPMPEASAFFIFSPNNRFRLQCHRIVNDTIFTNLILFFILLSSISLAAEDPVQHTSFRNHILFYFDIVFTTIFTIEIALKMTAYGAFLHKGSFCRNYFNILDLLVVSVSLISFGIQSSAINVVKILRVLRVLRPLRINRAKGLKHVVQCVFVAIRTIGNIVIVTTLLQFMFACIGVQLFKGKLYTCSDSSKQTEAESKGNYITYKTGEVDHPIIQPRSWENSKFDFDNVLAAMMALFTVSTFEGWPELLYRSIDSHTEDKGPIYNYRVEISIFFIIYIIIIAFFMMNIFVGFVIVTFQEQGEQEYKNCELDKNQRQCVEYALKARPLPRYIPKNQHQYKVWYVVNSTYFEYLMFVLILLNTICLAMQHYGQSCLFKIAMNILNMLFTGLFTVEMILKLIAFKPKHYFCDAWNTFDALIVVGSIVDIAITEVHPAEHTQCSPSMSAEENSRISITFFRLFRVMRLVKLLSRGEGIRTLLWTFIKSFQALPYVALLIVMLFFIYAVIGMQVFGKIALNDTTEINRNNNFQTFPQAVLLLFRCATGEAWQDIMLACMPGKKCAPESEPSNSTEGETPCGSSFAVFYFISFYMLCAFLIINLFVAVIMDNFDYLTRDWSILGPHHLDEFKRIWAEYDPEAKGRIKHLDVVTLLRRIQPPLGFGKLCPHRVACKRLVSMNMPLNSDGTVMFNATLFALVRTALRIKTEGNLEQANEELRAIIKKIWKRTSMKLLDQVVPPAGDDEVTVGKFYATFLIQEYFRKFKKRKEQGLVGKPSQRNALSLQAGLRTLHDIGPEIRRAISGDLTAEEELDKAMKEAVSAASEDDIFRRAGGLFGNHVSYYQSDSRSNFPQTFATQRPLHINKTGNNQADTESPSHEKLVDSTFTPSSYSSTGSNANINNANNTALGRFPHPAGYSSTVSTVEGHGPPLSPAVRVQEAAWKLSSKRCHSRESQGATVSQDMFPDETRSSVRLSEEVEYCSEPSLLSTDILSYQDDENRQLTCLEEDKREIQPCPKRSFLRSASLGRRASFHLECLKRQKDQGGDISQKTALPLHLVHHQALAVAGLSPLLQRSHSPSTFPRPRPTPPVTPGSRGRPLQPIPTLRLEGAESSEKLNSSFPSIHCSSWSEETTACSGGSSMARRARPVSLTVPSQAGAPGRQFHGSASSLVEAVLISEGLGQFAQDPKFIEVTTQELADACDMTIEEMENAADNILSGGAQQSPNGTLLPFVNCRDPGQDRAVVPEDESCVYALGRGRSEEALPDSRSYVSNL
Format: functional
assay-readout: AC50

compound: CC(C(=O)O)c1ccc2c(c1)CC(=O)c1ccccc1S2 (stereo not drawn)
assay-readout: AC50
result: > 30 µM
--
compound: C[C@@H]1C[C@H]2[C@@H]3C[C@H](F)C4=CC(=O)C=C[C@]4(C)[C@@]3(F)[C@@H](O)C[C@]2(C)[C@@]1(OC(=O)c1ccco1)C(=O)SCF [FLUTICASONE FUROATE]
assay-readout: AC50
result: > 10 µM
--
compound: Cc1cc(C)nc(NS(=O)(=O)c2ccc(N)cc2)n1
assay-readout: AC50
result: > 10 µM

----------
Parameter AC50, tested on Adenosine receptor A3 (Homo sapiens), listed per item. Also: assay procedure not described here.
Sequence (P0DMS8 whole entry): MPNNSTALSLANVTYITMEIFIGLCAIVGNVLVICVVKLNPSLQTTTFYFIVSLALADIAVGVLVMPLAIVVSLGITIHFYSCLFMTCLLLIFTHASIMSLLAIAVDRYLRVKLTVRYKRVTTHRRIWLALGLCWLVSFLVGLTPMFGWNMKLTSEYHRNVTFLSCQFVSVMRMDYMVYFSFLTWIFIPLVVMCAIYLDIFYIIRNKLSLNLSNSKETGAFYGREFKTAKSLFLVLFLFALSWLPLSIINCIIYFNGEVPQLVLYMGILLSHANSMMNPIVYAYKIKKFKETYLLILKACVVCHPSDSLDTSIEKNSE

compound: CCc1cc2c(s1)-n1c(C)nnc1CN=C2c1ccccc1Cl
AC50: > 30 µM

compound: CN1CCN=C(c2ccccc2)c2cc(Cl)ccc21
AC50: 15 µM

compound: Cc1ccccc1N1C(=O)c2cc(S(N)(=O)=O)c(Cl)cc2NC1C (stereo not given)
AC50: > 10 µM

compound: CCC(=O)O[C@]1(C(=O)CCl)[C@@H](C)C[C@H]2[C@@H]3CCC4=CC(=O)C=C[C@]4(C)[C@@]3(F)[C@@H](O)C[C@@]21C [CLOBETASOL PROPIONATE]
AC50: > 30 µM

compound: C=CCN1CCc2nc(N)sc2CC1 [TALIPEXOLE]
AC50: > 30 µM

compound: Cc1cccc(C)c1NC(=O)CC12CCCN1CCC2 [PILSICAINIDE]
AC50: > 30 µM

compound: CCOC(=O)[C@@H](N)Cc1ccc(-c2cc(O[C@H](c3ccc(Cl)cc3-n3ccc(C)n3)C(F)(F)F)nc(N)n2)cc1
AC50: 3.1 µM

compound: CCCCCCCC(=O)CC[C@@H]1[C@@H](C/C=C\CCCC(=O)OC(C)C)[C@@H](O)C[C@H]1O
AC50: 5.6 µM

compound: CC(c1cc2ccccc2s1)N(O)C(N)=O (stereo not given)
AC50: > 10 µM

compound: CCCCOc1ccc(C(=O)CCN2CCCCC2)cc1
AC50: > 30 µM

----------
Biological target: Estrogen receptor (Homo sapiens); also: assay procedure not described here
Sequence (P03372 whole entry): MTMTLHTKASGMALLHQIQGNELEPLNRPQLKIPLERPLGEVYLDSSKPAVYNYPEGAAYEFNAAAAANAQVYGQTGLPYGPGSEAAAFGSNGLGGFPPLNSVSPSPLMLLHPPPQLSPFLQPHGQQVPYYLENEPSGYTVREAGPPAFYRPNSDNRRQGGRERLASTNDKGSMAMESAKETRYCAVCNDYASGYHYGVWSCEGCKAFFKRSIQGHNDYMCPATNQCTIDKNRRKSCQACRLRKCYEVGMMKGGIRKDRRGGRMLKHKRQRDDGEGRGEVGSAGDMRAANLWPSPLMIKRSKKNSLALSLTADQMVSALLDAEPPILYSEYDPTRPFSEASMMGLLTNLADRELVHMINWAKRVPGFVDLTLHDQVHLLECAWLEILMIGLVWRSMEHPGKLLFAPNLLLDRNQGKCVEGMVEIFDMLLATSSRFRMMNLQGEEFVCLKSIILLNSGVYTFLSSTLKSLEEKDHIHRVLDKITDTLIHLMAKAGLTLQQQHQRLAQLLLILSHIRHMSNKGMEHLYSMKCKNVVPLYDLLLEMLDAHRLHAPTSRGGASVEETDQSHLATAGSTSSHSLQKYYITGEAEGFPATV
Format: functional
Quick list: AC50 per entry.
assay-readout: AC50

compound: CC(C)(O/N=C(\C(=O)N[C@@H]1C(=O)N2C(C(=O)[O-])=C(C[n+]3ccccc3)CS[C@H]12)c1csc(N)n1)C(=O)O
assay-readout: AC50
result: 48 µM
--
compound: Cc1nnc(SCC2=C(C(=O)O)N3C(=O)[C@@H](NC(=O)Cn4cnnn4)[C@H]3SC2)s1
assay-readout: AC50
result: > 300 µM
--
compound: CC(C)Cc1ccc([C@H](C)C(=O)O)cc1
assay-readout: AC50
result: > 30 µM
--
compound: CNC[C@H](O)c1ccc(O)c(O)c1 [EPINEPHRINE]
assay-readout: AC50
result: > 30 µM
--
compound: COc1cc(C(C)=O)ccc1OCCCN1CCC(c2noc3cc(F)ccc23)CC1
assay-readout: AC50
result: > 30 µM
--
compound: CCOc1cc([C@@H](CS(C)(=O)=O)N2C(=O)c3cccc(NC(C)=O)c3C2=O)ccc1OC
assay-readout: AC50
result: > 30 µM
--
compound: CCCc1nc2c(C)cc(-c3nc4ccccc4n3C)cc2n1Cc1ccc(-c2ccccc2C(=O)O)cc1
assay-readout: AC50
result: > 30 µM
--
compound: S=P(N1CC1)(N1CC1)N1CC1
assay-readout: AC50
result: > 30 µM

----------
Molecular target: Prostaglandin G/H synthase 1 (Homo sapiens); also: assay procedure not described here
Sequence (P23219 whole entry): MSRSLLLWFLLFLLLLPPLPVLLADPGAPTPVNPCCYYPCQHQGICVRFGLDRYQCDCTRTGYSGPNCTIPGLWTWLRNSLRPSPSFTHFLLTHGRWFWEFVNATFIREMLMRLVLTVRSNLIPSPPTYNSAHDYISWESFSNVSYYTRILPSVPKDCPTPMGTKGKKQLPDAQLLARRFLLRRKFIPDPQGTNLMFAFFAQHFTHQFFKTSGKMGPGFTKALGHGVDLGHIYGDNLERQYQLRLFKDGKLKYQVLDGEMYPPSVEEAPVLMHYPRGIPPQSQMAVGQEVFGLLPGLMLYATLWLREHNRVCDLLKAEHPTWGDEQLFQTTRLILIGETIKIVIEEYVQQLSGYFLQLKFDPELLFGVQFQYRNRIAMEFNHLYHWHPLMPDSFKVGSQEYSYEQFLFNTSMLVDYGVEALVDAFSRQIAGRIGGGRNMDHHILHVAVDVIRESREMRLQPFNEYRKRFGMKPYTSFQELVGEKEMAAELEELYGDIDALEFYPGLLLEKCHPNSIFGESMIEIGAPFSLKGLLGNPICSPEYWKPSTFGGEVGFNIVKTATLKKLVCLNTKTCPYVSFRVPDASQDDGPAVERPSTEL
Type: functional

molecule: CC(=O)OC[C@H]1O[C@@H](n2ncc(=O)[nH]c2=O)[C@H](OC(C)=O)[C@@H]1OC(C)=O [AZARIBINE]
AC50: > 30 µM
--
molecule: C=CC(=O)Nc1cccc(Oc2nc(Nc3ccc(N4CCN(C)CC4)cc3)nc3ccsc23)c1 [OLMUTINIB]
AC50: > 30 µM
--
molecule: CCC[C@H](N[C@@H](C)C(=O)N1[C@H](C(=O)O)C[C@@H]2CCCC[C@@H]21)C(=O)OCC [PERINDOPRIL]
AC50: > 30 µM
--
molecule: C[C@]12C=CC(=O)C=C1CC[C@H]1[C@@H]3C[C@@H](O)[C@](O)(C(=O)CO)[C@@]3(C)C[C@H](O)[C@@]12F [TRIAMCINOLONE]
AC50: > 30 µM
--
molecule: Cc1ccsc1C(=CCCN1CCC[C@@H](C(=O)O)C1)c1sccc1C [TIAGABINE]
AC50: 24.4 µM
--
molecule: CC(=O)NO [ACETOHYDROXAMIC ACID]
AC50: 21.5 µM

----------
Where a SMILES comes first, the peptide text is derived from it. [ ]: non-standard residue; d: D form. pGlu = O=C1CC[C@@H](C(=O)O)N1; Thz = O=C(O)[C@@H]1CSCN1
Parameter AC50, tested on Histamine H3 receptor (Homo sapiens, UniProt Q9Y5N1), listed per item. Also: assay procedure not described here.
Sequence (Q9Y5N1 whole entry): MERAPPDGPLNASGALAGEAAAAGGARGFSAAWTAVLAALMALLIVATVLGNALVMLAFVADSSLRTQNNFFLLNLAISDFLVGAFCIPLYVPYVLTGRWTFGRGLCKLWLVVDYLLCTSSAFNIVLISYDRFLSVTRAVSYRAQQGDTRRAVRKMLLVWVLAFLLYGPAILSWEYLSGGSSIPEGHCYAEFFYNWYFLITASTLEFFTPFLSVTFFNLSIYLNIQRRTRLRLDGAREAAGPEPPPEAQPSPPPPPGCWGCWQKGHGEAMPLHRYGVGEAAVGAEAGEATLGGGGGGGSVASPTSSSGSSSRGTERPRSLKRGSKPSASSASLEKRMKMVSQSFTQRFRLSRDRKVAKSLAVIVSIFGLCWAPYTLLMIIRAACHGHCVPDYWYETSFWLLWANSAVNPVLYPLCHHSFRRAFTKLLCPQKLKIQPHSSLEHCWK

molecule: CCC(=O)O[C@]1(C(=O)CCl)[C@@H](C)C[C@H]2[C@@H]3CCC4=CC(=O)C=C[C@]4(C)[C@@]3(F)[C@@H](O)C[C@@]21C [CLOBETASOL PROPIONATE]
AC50: > 30 µM
--
molecule: CC(CN(C)C)C(C)(O)Cc1ccc(Cl)cc1 (configuration not stated)
AC50: > 10 µM
--
molecule: CO/N=C(\C(=O)N[C@@H]1C(=O)N2C(C(=O)O)=C(CSc3nc(=O)c(=O)[nH]n3C)CS[C@H]12)c1csc(N)n1
AC50: > 30 µM
--
molecule: CN1CCN=C(c2ccccc2)c2cc(Cl)ccc21
AC50: > 30 µM
--
molecule: CNC[C@H](O)c1ccc(O)c(O)c1 [EPINEPHRINE]
AC50: > 30 µM
--
molecule: O=C(O)Cc1ccccc1Oc1ccc(Cl)cc1Cl
AC50: > 10 µM
--
molecule: O=C1CC[C@@H](C(=O)N2CSC[C@H]2C(=O)O)N1 [PIDOTIMOD] ([pGlu]-[Thz]-OH)
AC50: > 30 µM
--
molecule: Cc1cc(=O)n(-c2ccccc2)n1C [ANTIPYRINE]
AC50: > 10 µM
--
molecule: Cc1cccc(C)c1NC(=O)CC12CCCN1CCC2 [PILSICAINIDE]
AC50: > 30 µM
--
molecule: CC(C)[C@H](N)C(=O)OCCOCn1cnc2c(=O)[nH]c(N)nc21
AC50: > 10 µM
--
molecule: CCCc1nc2c(C)cc(-c3nc4ccccc4n3C)cc2n1Cc1ccc(-c2ccccc2C(=O)O)cc1
AC50: > 30 µM
--
molecule: Clc1ccc(CCC(Cn2ccnc2)Sc2c(Cl)cccc2Cl)cc1 (configuration not stated)
AC50: > 30 µM

----------
Biological target: Adenosine receptor A2a (Homo sapiens, UniProt P29274); also: assay procedure not described here
Sequence (P29274 whole entry): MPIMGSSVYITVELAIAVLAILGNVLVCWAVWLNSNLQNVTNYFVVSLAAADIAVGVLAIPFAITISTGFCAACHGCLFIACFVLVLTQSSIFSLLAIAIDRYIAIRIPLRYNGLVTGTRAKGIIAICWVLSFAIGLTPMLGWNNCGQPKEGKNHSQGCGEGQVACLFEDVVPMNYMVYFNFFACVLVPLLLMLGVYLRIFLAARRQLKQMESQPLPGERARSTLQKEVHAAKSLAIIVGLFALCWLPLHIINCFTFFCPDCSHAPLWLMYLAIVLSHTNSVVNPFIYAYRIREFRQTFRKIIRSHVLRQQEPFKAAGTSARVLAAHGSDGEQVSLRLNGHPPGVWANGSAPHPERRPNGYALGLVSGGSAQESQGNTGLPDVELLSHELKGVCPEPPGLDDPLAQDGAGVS
Quick list: AC50 per entry.

compound: Cc1ccnc2c1NC(=O)c1cccnc1N2C1CC1
study-system: Adenosine receptor A2a (Homo sapiens, UniProt P29274); also: assay procedure not described here
AC50: 15.2 µM

compound: O=C(/C=C/c1cccc(S(=O)(=O)Nc2ccccc2)c1)NO
study-system: Adenosine receptor A2a (Homo sapiens, UniProt P29274); also: assay procedure not described here
AC50: > 30 µM

compound: CC(C)(O/N=C(\C(=O)N[C@@H]1C(=O)N2C(C(=O)[O-])=C(C[n+]3ccccc3)CS[C@H]12)c1csc(N)n1)C(=O)O
study-system: Adenosine receptor A2a (Homo sapiens, UniProt P29274); also: assay procedure not described here
AC50: > 300 µM

compound: CCC[C@@H]1C[C@@H](C(=O)N[C@@H]([C@H]2O[C@H](SC)[C@H](O)[C@@H](O)[C@H]2O)[C@@H](C)O)N(C)C1
study-system: Adenosine receptor A2a (Homo sapiens, UniProt P29274); also: assay procedure not described here
AC50: > 10 µM

compound: Cc1ccc(C)c(OCCCC(C)(C)C(=O)O)c1
study-system: Adenosine receptor A2a (Homo sapiens, UniProt P29274); also: assay procedure not described here
AC50: > 30 µM

compound: COc1cc(N)c(Cl)cc1C(=O)NC1CCN(CCCOc2ccc(F)cc2)CC1OC (stereo not drawn) [CISAPRIDE]
study-system: Adenosine receptor A2a (Homo sapiens, UniProt P29274); also: assay procedure not described here
AC50: > 30 µM

compound: Cc1cccc(C)c1NC(=O)CC12CCCN1CCC2 [PILSICAINIDE]
study-system: Adenosine receptor A2a (Homo sapiens, UniProt P29274); also: assay procedure not described here
AC50: > 30 µM

compound: CC(O)(CS(=O)(=O)c1ccc(F)cc1)C(=O)Nc1ccc(C#N)c(C(F)(F)F)c1 (stereo not drawn) [BICALUTAMIDE]
study-system: Adenosine receptor A2a (Homo sapiens, UniProt P29274); also: assay procedure not described here
AC50: > 30 µM

----------
Biological target: Gamma-aminobutyric acid receptor subunit alpha-1 (Rattus norvegicus); also: assay procedure not described here
Sequence (P62813 whole entry): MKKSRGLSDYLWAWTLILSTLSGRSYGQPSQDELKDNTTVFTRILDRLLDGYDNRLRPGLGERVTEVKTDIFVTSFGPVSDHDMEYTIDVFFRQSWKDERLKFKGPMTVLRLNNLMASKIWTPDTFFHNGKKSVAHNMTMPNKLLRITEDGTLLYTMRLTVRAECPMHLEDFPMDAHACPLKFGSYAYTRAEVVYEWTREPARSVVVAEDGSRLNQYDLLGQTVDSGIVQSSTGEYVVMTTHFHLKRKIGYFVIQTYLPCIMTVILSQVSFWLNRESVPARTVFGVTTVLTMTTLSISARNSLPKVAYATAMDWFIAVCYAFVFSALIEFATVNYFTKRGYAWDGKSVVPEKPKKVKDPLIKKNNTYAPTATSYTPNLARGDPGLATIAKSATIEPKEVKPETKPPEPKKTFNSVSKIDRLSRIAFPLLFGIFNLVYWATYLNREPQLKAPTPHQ
Assay type: functional
Quick list: AC50 per entry.

compound: CCOc1cc([C@@H](CS(C)(=O)=O)N2C(=O)c3cccc(NC(C)=O)c3C2=O)ccc1OC
AC50: > 30 µM
--
compound: Cc1onc(-c2c(F)cccc2Cl)c1C(=O)N[C@@H]1C(=O)N2[C@@H]1SC(C)(C)[C@@H]2C(=O)O
AC50: > 30 µM
--
compound: O=C1c2ccccc2C(=O)C1c1ccccc1
AC50: > 10 µM
--
compound: Clc1ccc(CCC(Cn2ccnc2)Sc2c(Cl)cccc2Cl)cc1 (stereo unspecified)
AC50: > 30 µM
--
compound: c1ccc(C2(N3CCCCC3)CCCCC2)cc1
AC50: > 30 µM
--
compound: Cc1ccnc2c1NC(=O)c1cccnc1N2C1CC1
AC50: > 10 µM
